molecular target: Sodium- and chloride-dependent GABA transporter 1 (Homo sapiens, UniProt P30531); experiment: Inhibition of human GAT1 transfected in CHO cells assessed as [3H]GABA uptake after 20 mins by liquid scintillation counting analysis
Sequence (P30531 whole entry): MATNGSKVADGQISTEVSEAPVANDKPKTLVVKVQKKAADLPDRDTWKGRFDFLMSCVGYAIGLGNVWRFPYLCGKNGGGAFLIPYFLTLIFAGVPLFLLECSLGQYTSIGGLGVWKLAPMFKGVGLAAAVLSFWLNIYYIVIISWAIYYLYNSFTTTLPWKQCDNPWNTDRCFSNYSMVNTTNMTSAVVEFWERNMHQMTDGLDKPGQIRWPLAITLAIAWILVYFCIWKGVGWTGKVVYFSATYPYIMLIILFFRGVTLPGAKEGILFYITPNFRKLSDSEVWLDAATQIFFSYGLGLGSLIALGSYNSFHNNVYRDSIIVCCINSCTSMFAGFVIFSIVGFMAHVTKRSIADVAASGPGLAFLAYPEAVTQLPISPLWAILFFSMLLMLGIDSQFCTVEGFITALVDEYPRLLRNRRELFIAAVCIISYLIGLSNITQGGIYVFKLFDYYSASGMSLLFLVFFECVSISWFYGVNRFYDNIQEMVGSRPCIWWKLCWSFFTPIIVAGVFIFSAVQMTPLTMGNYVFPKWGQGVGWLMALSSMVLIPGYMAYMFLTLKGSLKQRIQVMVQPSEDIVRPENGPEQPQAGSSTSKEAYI
pIC50: −log10 of the molar value.
READOUT_TYPE: pIC50

Solved cases below.
INSERT INTO results (entry_smiles, result) VALUES
  ('COc1ccccc1C1(O)CCN(CCCn2c3ccccc3c3ccccc32)CC1', 4.94),
  ('COc1ccc(C(OCCN2CCC[C@H](C(=O)O)C2)(c2ccc(OC)cc2)c2ccc(OC)cc2)cc1', '< 4.00'),
  ('N[C@H]1C[C@H]1CC(=O)O', '< 4.00');

Shift focus to the following entry.
Sample N[C@@]12CC[C@H](C(=O)O)[C@@H]1C2 ; pIC50 observed: < 4.00

====

Biological target: UniProtKB P48066
Sequence (P48066 whole entry): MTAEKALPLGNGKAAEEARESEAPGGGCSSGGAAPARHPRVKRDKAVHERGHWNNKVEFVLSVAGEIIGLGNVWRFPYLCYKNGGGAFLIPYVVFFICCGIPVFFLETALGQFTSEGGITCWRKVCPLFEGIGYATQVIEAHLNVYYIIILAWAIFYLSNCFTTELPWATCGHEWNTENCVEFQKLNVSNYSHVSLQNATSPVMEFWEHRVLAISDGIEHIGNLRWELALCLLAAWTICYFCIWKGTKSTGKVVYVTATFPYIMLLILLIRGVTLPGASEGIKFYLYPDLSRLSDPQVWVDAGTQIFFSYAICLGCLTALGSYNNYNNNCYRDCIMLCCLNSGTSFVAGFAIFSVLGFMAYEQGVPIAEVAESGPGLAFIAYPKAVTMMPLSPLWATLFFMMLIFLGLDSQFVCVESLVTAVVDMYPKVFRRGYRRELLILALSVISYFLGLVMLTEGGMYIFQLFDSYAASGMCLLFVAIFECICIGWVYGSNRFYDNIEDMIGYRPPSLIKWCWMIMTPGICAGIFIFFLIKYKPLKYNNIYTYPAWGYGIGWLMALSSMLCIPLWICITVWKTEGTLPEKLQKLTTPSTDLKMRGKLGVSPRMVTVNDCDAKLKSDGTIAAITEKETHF
Experiment: Inhibition of human GAT3 transfected in CHO cells assessed as [3H]GABA uptake after 20 mins by liquid scintillation counting analysis
READOUT_TYPE: IC50 (µM)

INSERT INTO results (entry_smiles, recorded_number) VALUES
  ('COc1ccccc1C1(O)CCN(CCCn2c3ccccc3c3ccccc32)CC1', 8.92);

1: N[C@H]1C[C@H]1CC(=O)O
2: N[C@@]12CC[C@H](C(=O)O)[C@@H]1C2
I'd appreciate it if you could identify which of 1 and 2 has the greater IC50. Respond using the label that marks the chosen record.
2
